test system: Rattus norvegicus; assay: Cmax in Fischer 344 rat at 10 mg/kg, po; format: ADME, organism-based; set-up: dose 10 mg/kg, route oral; details: in vivo
readout: Cmax

Looking for the measured Cmax of N[C@@]1(C(=O)O)C[S+]([O-])[C@H]2[C@H](C(=O)O)[C@H]21 (stereo in doubt; (-)-11) , can you help?
400 ng/mL

Looking for the measured Cmax of N[C@@]1(C(=O)O)CS(=O)(=O)[C@H]2[C@H](C(=O)O)[C@H]21 [LY404039] , can you help?
4000 ng/mL

Looking for the measured Cmax of N[C@@]1(C(=O)O)C[S+]([O-])[C@H]2[C@H](C(=O)O)[C@H]21 (stereo in doubt; (+)-11) , can you help?
7500 ng/mL
